studyTarget: serotonin (5-HT) reuptake (Rattus norvegicus, UniProt P31652)
Construct: synaptosomes are freshly isolated from areas of the rat brain; from tissue; host or cells: rat brain synaptosomes (P2 fraction)
Sequence (P31652 whole entry): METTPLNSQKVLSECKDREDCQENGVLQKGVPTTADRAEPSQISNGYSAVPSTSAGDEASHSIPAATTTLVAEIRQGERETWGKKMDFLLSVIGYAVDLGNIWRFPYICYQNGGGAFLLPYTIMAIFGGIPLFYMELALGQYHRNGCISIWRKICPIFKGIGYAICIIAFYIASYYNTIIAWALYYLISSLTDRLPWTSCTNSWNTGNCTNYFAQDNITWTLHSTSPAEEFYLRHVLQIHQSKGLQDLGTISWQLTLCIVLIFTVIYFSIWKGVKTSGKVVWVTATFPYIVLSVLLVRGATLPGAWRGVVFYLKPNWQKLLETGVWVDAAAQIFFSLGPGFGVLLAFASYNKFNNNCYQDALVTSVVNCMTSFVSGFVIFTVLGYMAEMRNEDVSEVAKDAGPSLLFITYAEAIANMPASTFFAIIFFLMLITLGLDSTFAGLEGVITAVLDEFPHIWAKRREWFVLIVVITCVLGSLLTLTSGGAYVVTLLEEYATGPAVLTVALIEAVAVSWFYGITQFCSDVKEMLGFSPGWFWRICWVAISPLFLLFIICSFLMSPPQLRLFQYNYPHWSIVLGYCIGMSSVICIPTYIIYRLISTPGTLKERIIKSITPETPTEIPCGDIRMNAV
assayComment: Inhibition of serotonin (5HT) reuptake in synaptosomes from rat brain
Type: biochemical
conditions: test concentration of 10 μM
endpointName: 5-HT (inhibition of reuptake of serotonin, % inhibition) (%)

{"columns": ["compound", "recordedMeasurement"],
 "data": [
  ["COc1cc(C)c(S(=O)(=O)N2CCN(CCOCC(=O)NCC3CCC(C(CCc4ccccc4)N(C)C)CC3)CC2)c(C)c1C (stereo not shown)", 94],
  ["CN(C)C(c1ccc(F)cc1)C1CCC(NC(=O)COCc2ccccc2)CC1 (stereo not shown)", 59],
  ["Cc1ccc(S(=O)(=O)N(C)CCOCC(=O)NCCC2CCC(C(c3ccc(F)cc3)N(C)C)CC2)cc1 (stereo not shown)", 90],
  ["CN(C)C(c1ccc(F)cc1)C1CCC(CCNC(=O)COC2CCN(S(=O)(=O)c3ccc(Cl)cc3Cl)C2)CC1 (stereo not shown)", 88],
  ["CN(C)C(c1ccc(F)cc1)C1CCC(CCNC(=O)COCCN(C)S(=O)(=O)c2ccc(F)cc2)CC1 (stereo not shown)", 101],
  ["CN(C)C(c1cccc(F)c1)C1CCC(CNC(=O)COC2CCN(S(=O)(=O)c3ccccc3)CC2)CC1 (stereo not shown)", 95],
  ["COc1cc(C)c(S(=O)(=O)N2CCC(OCC(=O)NCC3CCC(C(CCc4ccccc4)N(C)C)CC3)C2)c(C)c1C (stereo not shown)", 90]
]}

###

Listed next: entries and their corresponding B1R Ant. h [10 μM] % Inhibition.
studyTarget: human bradykinin 1 receptor (B1R) (Homo sapiens, UniProt P46663)
Construct: expressed in transfected cells; host or cells: CHO K1 cells
Sequence (P46663 whole entry): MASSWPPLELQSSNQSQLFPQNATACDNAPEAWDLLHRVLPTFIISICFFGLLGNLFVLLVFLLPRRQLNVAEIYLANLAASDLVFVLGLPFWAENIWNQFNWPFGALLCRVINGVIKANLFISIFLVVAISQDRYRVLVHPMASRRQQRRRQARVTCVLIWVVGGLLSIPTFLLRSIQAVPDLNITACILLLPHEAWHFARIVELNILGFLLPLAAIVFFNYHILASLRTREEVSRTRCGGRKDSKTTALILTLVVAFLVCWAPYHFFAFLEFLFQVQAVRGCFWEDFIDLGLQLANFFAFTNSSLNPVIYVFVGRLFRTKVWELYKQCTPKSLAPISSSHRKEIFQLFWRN
assayComment: Functional investigation on the human bradykinin 1 receptor (B1R), Ca2+ FLIPR assay in CHO K1 hB1R cells
Assay type: cell-based
conditions: B1R antagonism human; test substance 10 μM; Ca2+ FLIPR, CHO K1 hB1R cells

{"columns": ["compound", "unitSpec", "B1R Ant. h [10 μM] % Inhibition"],
 "data": [
  ["CN(C)C(c1ccc(Cl)cc1)C1CCC(CCNC(=O)COCCN(C)S(=O)(=O)c2c(Cl)cccc2Cl)CC1 (stereo not shown)", "%", 100],
  ["COc1ccc(S(=O)(=O)N2CCCCC2CCOCC(=O)NCCC2CCC(C(c3ccc(F)cc3)N(C)C)CC2)cc1 (stereo not shown)", "%", 80],
  ["CN(C)C(c1cccc(F)c1)C1CCC(NC(=O)COC2CCN(S(=O)(=O)c3ccc(Cl)cc3)C2)CC1 (stereo not shown)", "%", 2],
  ["CN(C)C(CCc1ccccc1)C1CCC(CNC(=O)COCCN(C)S(=O)(=O)c2ccc(Cl)cc2)CC1 (stereo not shown)", "%", 66],
  ["CN(C)C(c1cccc(F)c1)C1CCC(NC(=O)COC2CCN(S(=O)(=O)c3ccccc3)C2)CC1 (stereo not shown)", "%", "−7"],
  ["CN(C)C(c1cccc(F)c1)C1CCC(CNC(=O)COCCN2CCN(S(=O)(=O)c3ccccc3)CC2)CC1 (stereo not shown)", "%", "−1"],
  ["CN(C)C(c1ccc(F)cc1)C1CCC(CNC(=O)COC2CCCN(S(=O)(=O)c3ccccc3)C2)CC1 (stereo not shown)", "%", 4]
]}

###

studyTarget: human bradykinin 1 receptor (B1R) (Homo sapiens)
Construct: expressed in transfected cells; host or cells: CHO K1 cells
assayComment: Functional investigation on the human bradykinin 1 receptor (B1R), Ca2+ FLIPR assay in CHO K1 hB1R cells
Assay type: cell-based
conditions: CHO-K1, B1R antagonism human; test substance 10 μM; Ca2+ FLIPR, CHO K1 hB1R cells; read-out: B1R Ant. h [10 μM] % Inhibition

{"columns": ["compound", "studyTarget", "unitSpec", "inhibition at 10 µM"],
 "data": [
  ["COc1cc(C)c(S(=O)(=O)N(C)CCOCC(=O)NC2CCC(C(CCc3ccccc3)N3CCOCC3)CC2)c(C)c1 (stereo not shown)", "human bradykinin 1 receptor (B1R) (Homo sapiens)", "%", 104],
  ["O=C(COCCN(C1CC1)S(=O)(=O)c1c(Cl)cc(Cl)cc1Cl)NC1CCC(C(c2ccccc2)N2CCCC2)CC1 (stereo not shown)", "human bradykinin 1 receptor (B1R) (Homo sapiens)", "%", 86],
  ["CN(CCOCC(=O)NCC1CCC(C(c2ccccc2)N2CCOCC2)CC1)S(=O)(=O)c1c(Cl)cccc1Cl (stereo not shown)", "human bradykinin 1 receptor (B1R) (Homo sapiens)", "%", 77],
  ["CN(C)C(c1cccc(F)c1)C1CCC(CCNC(=O)COCCN(C)S(=O)(=O)c2ccc(Cl)cc2Cl)CC1 (stereo not shown)", "human bradykinin 1 receptor (B1R) (Homo sapiens)", "%", 103],
  ["COc1cc(C)c(S(=O)(=O)N2CCCCC2COCC(=O)NC2CCC(C(c3ccccc3)N3CCOCC3)CC2)c(C)c1 (stereo not shown)", "human bradykinin 1 receptor (B1R) (Homo sapiens)", "%", 90],
  ["CN(C)C(c1cccc(F)c1)C1CCC(CNC(=O)COC2CCN(S(=O)(=O)c3cccc(C(F)(F)F)c3)C2)CC1 (stereo not shown)", "human bradykinin 1 receptor (B1R) (Homo sapiens)", "%", 8],
  ["COc1cc(C)c(S(=O)(=O)N(CCOCC(=O)NCCC2CCC(C(c3cccs3)N(C)C)CC2)Cc2ccccc2)c(C)c1 (stereo not shown)", "human bradykinin 1 receptor (B1R) (Homo sapiens)", "%", 72]
]}

###

studyTarget: human bradykinin 1 receptor (B1R) (Homo sapiens)
Construct: expressed in transfected cells; host or cells: CHO K1 cells
assayComment: Functional investigation on the human bradykinin 1 receptor (B1R), Ca2+ FLIPR assay in CHO K1 hB1R cells
Assay type: cell-based
conditions: B1R antagonism human; test substance 10 μM; Ca2+ FLIPR, CHO K1 hB1R cells
endpointName: B1R Ant. h [10 μM] % Inhibition (%)

{"columns": ["compound", "endpointName", "recordedMeasurement"],
 "data": [
  ["COc1ccc(S(=O)(=O)N(C)CCOCC(=O)NC2CCC(C(c3cccs3)N(C)C)CC2)cc1OC (stereo not shown)", "B1R Ant. h [10 μM] % Inhibition", "−5"],
  ["CN(C)C(c1ccc(F)cc1)C1CCC(NC(=O)COCCN(C)S(=O)(=O)c2ccc(F)cc2)CC1 (stereo not shown)", "B1R Ant. h [10 μM] % Inhibition", 7],
  ["CN(C)C(c1cccs1)C1CCC(NC(=O)COCCN(C)S(=O)(=O)c2ccc(OC(F)(F)F)cc2)CC1 (stereo not shown)", "B1R Ant. h [10 μM] % Inhibition", "−31"],
  ["Cc1cc(C)c(S(=O)(=O)N(C)CCOCC(=O)NC2CCC(C(c3ccc(F)cc3)N(C)C)CC2)c(C)c1 (stereo not shown)", "B1R Ant. h [10 μM] % Inhibition", 45],
  ["Cc1cc(C)c(S(=O)(=O)N(C)CCOCC(=O)NCCC2CCC(C(c3cccs3)N(C)C)CC2)c(C)c1 (stereo not shown)", "B1R Ant. h [10 μM] % Inhibition", 15],
  ["COc1ccc(S(=O)(=O)N(C)CCOCC(=O)NCC2CCC(C(c3cccc(F)c3)N(C)C)CC2)cc1 (stereo not shown)", "B1R Ant. h [10 μM] % Inhibition", 39],
  ["COc1ccc(S(=O)(=O)N2CCCC2COCC(=O)NCCC2CCC(C(c3cccc(F)c3)N(C)C)CC2)cc1 (stereo not shown)", "B1R Ant. h [10 μM] % Inhibition", 34]
]}

###

studyTarget: human bradykinin 1 receptor (B1R) (Homo sapiens)
Construct: expressed in transfected cells; host or cells: CHO K1 cells
assayComment: Functional investigation on the human bradykinin 1 receptor (B1R), Ca2+ FLIPR assay in CHO K1 hB1R cells
Assay type: cell-based
conditions: B1R antagonism human; test substance 10 μM; Ca2+ FLIPR, CHO K1 hB1R cells

{"columns": ["compound", "B1R Ant. h [10 μM] % Inhibition"],
 "data": [
  ["COc1cc(C)c(S(=O)(=O)N2CCC(OCC(=O)NCC3CCC(C(CCc4ccccc4)N(C)C)CC3)C2)c(C)c1 (stereo not shown)", "102%"],
  ["COc1cc(C)c(S(=O)(=O)N(CCOCC(=O)NC2CCC(C(c3ccccc3)N(C)C)CC2)Cc2ccccc2)c(C)c1 (stereo not shown)", "34%"],
  ["COc1cc(C)c(S(=O)(=O)N2CCC(CCOCC(=O)NCC3CCC(C(c4cccc(F)c4)N(C)C)CC3)CC2)c(C)c1C (stereo not shown)", "0%"],
  ["CN(C)C(c1cccc(F)c1)C1CCC(CCNC(=O)COC2CCCN(S(=O)(=O)c3ccccc3)C2)CC1 (stereo not shown)", "−5%"],
  ["COc1cc(C)c(S(=O)(=O)N(CCOCC(=O)NCC2CCC(C(c3ccc(Cl)cc3)N(C)C)CC2)Cc2ccccc2)c(C)c1C (stereo not shown)", "16%"],
  ["CN(C)C(c1ccc(Cl)cc1)C1CCC(CCNC(=O)COCCN(C)S(=O)(=O)c2ccc(Cl)cc2)CC1 (stereo not shown)", "85%"],
  ["Cc1ccc(S(=O)(=O)N(C)CCOCC(=O)NCCC2CCC(C(c3cccc(F)c3)N(C)C)CC2)cc1 (stereo not shown)", "2%"]
]}
